Reference source: PubChem BioAssay

Some molecules, each annotated with its measured composite z-score.
biological target: Dihydroorotate dehydrogenase (quinone), mitochondrial (Plasmodium falciparum (isolate 3D7)); test: PfDHODH enzyme inhibitors, primary screen, biochemical, C-terminal His tag, absorbance 600 nm (AID 1175); settings: DCIP absorbance 600 nm, higher = more signal, called active from +8 up or from −8 down;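 further: recombinant parasite enzyme with a five histidine tag at its C terminus; test concentration not given here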
Lab note: write the figure by itself, no unit.

The recorded composite z-score for COC(=O)[C@@]1(Cc2ccc(F)cc2)[C@H]2c3cc(C(=O)N4CCCC4)n(C)c3C[C@H]2CN1C(=O)c1ccccc1 is -0.316

Note to self: composite z-score recorded for CC(C)[C@H]1NC(=O)[C@@]23C(=O)N[C@@H](Cc4ccccc4)C2[C@H](C)[C@@]2(C)O[C@H]2C3/C=C/C/C=C\CNC(=O)[C@H](Cc2ccccc2)NC1=O (stereo not given in full) was -0.141

Reported composite z-score of COCC(=C=CC[C@@H](O)c1ccc(OCCO)cc1)CCO : -0.789

Short answer for COc1ccc(CCNC(=O)[C@@]2(Cc3ccccc3I)c3ccccc3C(=O)N(Cc3ccccc3Cl)[C@H]2c2ccc(CO)cc2)cc1 : composite z-score was -0.902

// below: composite z-score requested for another molecule
composite z-score recorded for this molecule, COc1cc2c(cc1O)C(c1ccc(CN3CCCC3)cc1)N(C)CC2 (stereo not given) , is -0.65

---

experiment: E. coli DRC41 culture turbidity changes, primary screen, E. coli filamentation inducer project, strain DRC41, OD650, 48 h (AID 1152);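 further: E. coli MC1000 strain DRC41 lacking acrAB efflux pump and sulA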; details: E. coli DRC41 (acrAB sulA), higher = more signal, called active from +8 up or from −8 down
measurement_kind: z-score
Form field (numeric): enter value without unit.

Briefly, z-score measured for O=C1NC(=O)C2C1C=CC(C(O)c1ccccn1)N2Nc1ccc(Cl)cc1Cl (centres undefined) : -0.889

z-score reading for CN1C(=O)C2C(C1=O)C1C=C(CCCO)C2C(c2cccs2)N1Cc1cc2c(cc1Br)OCO2 (centres undefined) : -0.139

The compound C[C@]1(C(=O)NCCN2CCOCC2)c2ccccc2C(=O)N(Cc2cc(F)cc(C(F)(F)F)c2)[C@H]1c1ccc(CO)cc1 showed z-score equal to 1.28

Here's the next entry for you.
Lookup result for COc1ccc([Si](C)(C)[C@@H]2[C@@H](CCn3cc([C@H](O)c4ccccc4)nn3)O[C@]3(C(=O)N(Cc4cccc(N5C(=O)c6cccc7cccc5c67)c4)c4ccccc43)[C@H]2C)cc1 ; measured z-score: -0.603

---

test: modulators of S6 phosphorylation in cells, primary screen, cell-based, A549, cytoblot, luminescence, serum-stimulated (AID 1158); details: A549 phospho-S6 cytoblot, 5 h, higher = more signal;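 further: serum-stimulated A549 lung adenocarcinoma cells; signal is phosphorylated S6 detected by cytoblot immunostaining with HRP secondary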
Could you label it condition met if measured z-score is -0.2 or higher, and condition not met otherwise?

These recorded examples may help you get a feel for the data.
Q: Kindly determine if z-score recorded for COCC1C2CC[C@H]3C(OCc4ccc(OC)cc4)OC[C@]4(C)[C@H]3C2=C(CN4C(=O)OC(C)(C)C)[C@H](C)C1COC (stereo partly drawn) is above or exactly -0.2.
A: condition met

Q: Does the molecule NC(=O)[C@H]1[C@@H]2C(=O)O[C@@H](c3ccccc3)[C@@H](c3ccccc3)N2[C@@H](c2ccc(O)cc2)[C@]12C(=O)Nc1ccc(C#CC3=CCCCC3)cc12 have recorded z-score that is -0.2 or more?
A: condition not met

Q: Please tell me: is the molecule COc1ccc(C#Cc2ccc3c(c2)[C@]2(C(=O)N3)[C@H](C(=O)Nc3nc4ccccc4s3)[C@H]3C(=O)O[C@H](c4ccccc4)[C@H](c4ccccc4)N3[C@@H]2c2ccccc2OCCO)cc1 at or over -0.2 in terms of z-score?
A: condition met

Q: Kindly determine if z-score recorded for [N-]=[N+]=Nc1ccccc1C[C@]1(C(=O)NCc2ccccc2)COC(c2ccc(OCCCO)cc2)=N1 is above or exactly -0.2.
A: condition not met

More entries:
Q: Textbook exercise: given the entry COCCOC(=O)N1C(=O)[C@@]2(c3cc(C#CC4(O)CCCCCC4)ccc31)[C@H](C(=O)N1CCN(c3ncccn3)CC1)[C@H]1C(=O)O[C@H](c3ccccc3)[C@H](c3ccccc3)N1[C@@H]2c1ccccc1OCCO , state whether its z-score is greater than or equal to -0.2.
A: condition not met
